- targetOfAssay: T1, human monomeric EGFR (EGFR.mmh) (human, UniProt P00533 25-647)
- T1 construct: Soluble monomeric EGFR construct
- procedureDetails: SPR 37C, mAb captured by anti-human Fc, EGFR.mmh analyte
assayEndpoint: koff (s⁻¹)
Express your answer in s⁻¹, writing the number without its unit.

Can you look up the measured koff of H1H116N (antibody, human IgG1, V domains shown, Tested in human IgG1 Fc format (H1H); also called H1M116N) VH: QVQLQESGPGLVKPSQTLSLTCTVSGGSVSSGDYYWSWIRQHPGKGLDWIGHIYYSGSTYYNPSLKSRVTISLDTSKNQFSLKLNSVTAADTAVYYCARTAITGTMDYWGQGTLVTVSS VL: EIVMTQSPATLSVSAGERATLSCRASQSVSSNLAWFQQKPGQAPRLLIYDASTRATGIPARFSGSGSGTEFTLIISSLQSEDFALYYCQQYNSWWTFGQGTKVEIK for me?
0.00284
